# system-under-test: Human EphA2 (ephrin receptor A2) on cells (human, UniProt P29317 25-976)
# Sequence (P29317 25-976): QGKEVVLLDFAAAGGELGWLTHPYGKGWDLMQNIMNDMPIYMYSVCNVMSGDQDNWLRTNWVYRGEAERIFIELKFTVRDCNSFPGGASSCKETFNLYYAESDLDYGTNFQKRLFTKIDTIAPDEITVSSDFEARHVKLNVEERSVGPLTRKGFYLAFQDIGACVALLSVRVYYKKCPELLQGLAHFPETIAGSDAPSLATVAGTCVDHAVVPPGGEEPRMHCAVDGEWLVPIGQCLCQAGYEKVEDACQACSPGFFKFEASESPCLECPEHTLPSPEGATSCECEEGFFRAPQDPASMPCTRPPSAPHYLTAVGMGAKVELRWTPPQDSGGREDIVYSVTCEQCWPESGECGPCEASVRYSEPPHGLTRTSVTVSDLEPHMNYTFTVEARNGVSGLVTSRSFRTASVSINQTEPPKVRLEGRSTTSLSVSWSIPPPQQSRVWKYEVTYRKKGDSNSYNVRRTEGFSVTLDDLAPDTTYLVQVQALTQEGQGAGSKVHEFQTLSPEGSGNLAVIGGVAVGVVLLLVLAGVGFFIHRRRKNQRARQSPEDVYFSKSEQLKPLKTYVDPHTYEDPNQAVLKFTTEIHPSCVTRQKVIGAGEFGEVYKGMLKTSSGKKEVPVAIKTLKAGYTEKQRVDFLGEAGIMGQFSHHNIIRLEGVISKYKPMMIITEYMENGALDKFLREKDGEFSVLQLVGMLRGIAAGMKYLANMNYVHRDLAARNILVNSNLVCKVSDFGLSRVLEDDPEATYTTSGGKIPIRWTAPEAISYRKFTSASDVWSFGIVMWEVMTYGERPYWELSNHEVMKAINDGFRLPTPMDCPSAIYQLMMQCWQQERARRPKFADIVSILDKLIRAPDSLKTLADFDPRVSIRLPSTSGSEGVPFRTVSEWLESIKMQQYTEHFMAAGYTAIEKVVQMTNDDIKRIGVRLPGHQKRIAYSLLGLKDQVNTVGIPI
# run-description: cell-based or functional assay
I'd be grateful if you could share measured ADCC Delta activity (%), A549 for these entries.
Give bare numbers, in %.

# get_value(readout='ADCC Delta activity (%), A549', item= AB-009806 (antibody, mouse IgG2a, V domains shown) VH: QVQLQQWGAGLLKPSETLSLTCAVYGGSFSDYYWSWIRQPPGKGLEWIGEINHSGSTNYNPSLKSRVTISVDPSKNQFSLKLTSVTAADTAVYYCAKPFRPHCTNGVCYSGDAFDIWGQGTMVTVSS VL: SYVLTQPPSVSVAPGQTARITCGGNNIGTKNVHWYQQKPGQAPVLVVYDDSDRPSGIPEQFSGSNSGNTATLTISRVEAGDEADYYCQVWDSSSDHLVFGGGTKLTVL ) 14.5

Further, for AB-009805 (antibody, mouse IgG2a, V domains shown) VH: QVQLQQWGAGLLKPSETLSLTCAVYGGSLSDYHWSWIRQPPGKGLEWIGEINHSGSTNYNPSLKSRVTISVDTSKNQFSLKLSSVSAADTAVYYCAKPFRPHCTNGVCHSGDAFDIWGQGTMATVSS VL: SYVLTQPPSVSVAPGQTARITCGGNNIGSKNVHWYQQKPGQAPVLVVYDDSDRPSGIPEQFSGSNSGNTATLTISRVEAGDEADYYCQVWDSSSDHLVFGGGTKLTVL ? 5.06

Now let's try a different one.
Sample AB-009807 (antibody, mouse IgG2a, V domains shown) VH: QVQLQQWGAGLLKPSETLSLTCAVYGGSFNDYYWSWIRQPPGKGLEWIGEVNHSGSTSYNPSLKSRVTISVDTSKNQFSLKLSSVTAADTAVYYCAKPFRPHCTNGVCYSGDAFDIWGQGTMVTVSS VL: SYVLTQPPSVSVAPGQTARITCGGNNIGSKNVHWYQQKPGQAPALVVYDDSDRPSGIPEQFSGSNSGNTATLTISRVEAGDEADYYCQVWDSSSDHLVFGGGTKLTVL — what was its ADCC Delta activity (%), A549? 0.4
